- Test Method Notes: NCI Yeast Anticancer Drug Screen. Data for the rad50EPP+ strain (AID 151);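 note: 0% = growth of vehicle-treated control cultures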
- Condition Parameters: S. cerevisiae rad50 mutant strain, at 100.0 µM
About 79,000 compounds went through this panel and 15% of them were active in at least one assay; those are over-represented in the sample as a whole. Calls of active or inactive are those of the source. Cut-off read from the data, not from the text of the source: active = growth inhibition above about 70%; inactive = the rest.
Hi there, use one of these labels in your reply, thanks! 1 = active, -1 = inactive

- Compound: "O=[n+]1c2ccccc2n([O-])c2cc(Br)ccc21"
  Qualitative Label: 1
- Compound: "OC(CCNCc1ccccc1)c1ccc2ccccc2c1 (stereo not drawn)"
  Qualitative Label: -1
- Compound: "S=c1sc2c(s1)SCCS2"
  Qualitative Label: -1

query: I'd appreciate the recorded outcome for CN(C)c1ccc(N=Nc2ccncc2)cc1 from this test.
result: 1

query: Next entry: O=P(NC1CCCCC1)(OCc1ccccc1)OCc1ccccc1
result: -1
